target: Angiotensin II receptor (Rattus norvegicus, UniProt P29089+P25095+P35351); test: Binding affinity against Angiotensin II receptor, from rat adrenal gland; type: tissue-based
Experimental Endpoint: IC50 (nM)

a. Cc1cc(Cn2cnc3c2C[C@@H](C(=O)O)N(C(=O)C(c2ccccc2)c2ccccc2)C3)ccc1[N+](=O)[O-]
b. COc1ccc(Cn2cnc3c2C[C@@H](C(=O)O)N(C(=O)C(c2ccc(Cl)cc2)c2ccc(Cl)cc2)C3)cc1C
### Prompt Compare reported IC50 values for a and b . Which is lower? Which one? Tell me its label.
### Response a

P. O=C(O)C1Cc2c(ncn2Cc2ccccc2)CN1C(=O)OCc1ccccc1 (stereo in doubt; 7a)
Q. CC(C)NC(=O)N1Cc2ncn(Cc3ccccc3)c2CC1C(=O)O (stereo not drawn)
R. O=C(O)C1Cc2c(ncn2Cc2ccccc2)CN1C(=O)Nc1ccccc1 (stereo not drawn)
S. Cc1ccc(C(C(=O)N2Cc3ncn(Cc4ccccc4)c3CC2C(=O)O)c2ccc(C)cc2)cc1 (stereo not drawn)
### Prompt Please produce an ascending ranking of these compounds based on IC50. When ranking, write the labels in the order the request describes.
### Response S, R, P, Q

A. O=C(O)C1Cc2c(ncn2Cc2ccccc2)CN1C(=O)C(c1ccccc1)C1CCCC1 (stereo not drawn)
B. O=C(O)C1Cc2c(ncn2Cc2ccccc2)CN1C(=O)C(c1ccccc1)c1ccccc1 (stereo in doubt; 18)
### Prompt Between the two listed entries A and B , which has its IC50 at the higher number? Answer = label.
### Response B
